B1: LINE1-mini (parent)
chain: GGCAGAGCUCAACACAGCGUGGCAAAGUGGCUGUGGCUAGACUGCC

Variants of: B1
Experiment: self-cleavage, relative activity (ratio to wild type); higher = more cleavage; in vitro, sequencing; the parent is a self-cleaving ribozyme
Give self-cleavage for every item shown.
One number for each entry.

VARIANT_NOTATION | self-cleavage
G29A G44A | 0.36
G19U U32G | 0.1
C15G G22U | 0.3

Field: self-cleavage. Fill in for each record below.
1. C3A C10U
2. G36C G44A
3. A12G U28G
4. G19C G40A
5. C8G G33C
6. G19C G35A
7. C13A U28G

Result:
[0.19, 0.04, 0.01, 0.06, 0.04, 0.17, 0.09]

For each of the variants below, state self-cleavage.
1. C10U G36C
2. U32A U43G

Result:
1. 0.05
2. 0.11

Could I get self-cleavage for every one of these entries?
1. U43G C45G
2. C15G C37G

Result:
1: 0.09; 2: 0.02

Give self-cleavage for each listed item.
1. G7A A26G
2. U9A A12C
3. U9C C45U
4. C31U U34G

Result:
1. 0.24
2. 0.03
3. 0.03
4. 0.04

Below are some variants; for each one, tell me its self-cleavage.
1. G21A A41G
2. A4U G7A
3. A14U C31A

Result:
1: 0.44; 2: 0.31; 3: 0.06

Task: # self-cleavage lookup, item A12U C18U
Result: 0.53
